// data source = patent US11098040B2

Assay: Pharmacokinetic (PK) studies via intravenous infusion, Sprague-Dawley rat
Format: in vivo
Conditions: male, plasma, 1 hour-IV infusion 4 mg/kg, 1.25 hr, one rat
QUANTITY KIND: concentration at 1.25 hr (ng/mL)

- COC(=O)[C@H]1Cc2c([nH]c3ccccc23)[C@H](c2ccc(S(=O)(=O)N[C@]34C[C@H]5C[C@H](C[C@H](C5)C3)C4)cc2)N1C(=O)CCl: 13.8

----------
Assay: PK profile, IV plasma concentration and PK parameters
Type: in vivo
Details: Balb/C nude, mouse, iv, 5 mg/kg, 30% Kolliphore EL with 1% poloxamar 407 in water, read-out: AUC0-∞
QUANTITY KIND: AUC(0-inf) (ng·h/mL)

• C[C@H]1Cc2c([nH]c3ccccc23)[C@H](c2ccc(NC34CC5CC(CC(C5)C3)C4)cc2)N1C(=O)CCl = 740
• CCCC[C@H]1Cc2c([nH]c3ccccc23)[C@H](c2ccc(S(=O)(=O)NC3CC3)cc2F)N1C(=O)CCl = 762
• C#CC(=O)N1[C@@H](CCCC)Cc2c([nH]c3ccccc23)[C@@H]1c1ccc(NC23CC4CC(CC(C4)C2)C3)cc1 = 17400
• CCCC[C@H]1Cc2c([nH]c3ccccc23)[C@H](c2ccc(NC34CC5CC(CC(C5)C3)C4)cc2)N1C(=O)CCl = 6550
